Where a SMILES comes first, the peptide text is derived from it. [ ]: non-standard residue; d: D form. The star is where a group is joined. NH(CH2)3NH(1-anthraquinonyl) = O=C1c2ccccc2C(=O)c2c(NCCCN*)cccc21; Nva = CCC[C@H](N)C(=O)O
assayEndpoint: melting point (°C)
# unit: °C | format: bare number

CCC[C@H](NC(=O)[C@H](C)N)C(=O)NCC(=O)N[C@@H](CC(C)C)C(=O)N1CCC[C@H]1C(=O)NCCCNc1cccc2c1C(=O)c1ccccc1C2=O.O=C(O)C(F)(F)F (H-A[Nva]GLP-{NH(CH2)3NH(1-anthraquinonyl)}) = 198

Next compound, melting point to be filled in.
Query: Identify measured melting point associated with "CC(C)C[C@H](NC(=O)[C@H](C)N)C(=O)NCC(=O)N[C@@H](CC(C)C)C(=O)N1CCC[C@@H]1C(=O)NCCCNc1cccc2c1C(=O)c1ccccc1C2=O.O=C(O)C(F)(F)F"
Reply: 168

====

Where a SMILES comes first, the peptide text is derived from it. [ ]: non-standard residue; d: D form. The star is where a group is joined. NH(CH2)3NH(1-anthraquinonyl) = O=C1c2ccccc2C(=O)c2c(NCCCN*)cccc21; Nva = CCC[C@H](N)C(=O)O
assayEndpoint: melting point

# annotated cases, reported melting point shown
CCC[C@H](NC(=O)[C@@H](N)CCC)C(=O)NCC(=O)N[C@@H](CC(C)C)C(=O)N1CCC[C@H]1C(=O)NCCCNc1cccc2c1C(=O)c1ccccc1C2=O.O=C(O)C(F)(F)F [Example 45] (H-[Nva][Nva]GLP-{NH(CH2)3NH(1-anthraquinonyl)}) = 174 to 176 °C
N[C@@H](Cc1ccccc1)C(=O)N1CCC[C@@H]1C(=O)NCCCNc1cccc2c1C(=O)c1ccccc1C2=O.O=C(O)C(F)(F)F = 118 to 120 °C
CCC[C@H](NC(=O)CNC(=O)[C@H](CC(C)C)NC(=O)[C@H](C)N)C(=O)N1CCC[C@H]1C(=O)NCCCNc1cccc2c1C(=O)c1ccccc1C2=O.O=C(O)C(F)(F)F (H-ALG[Nva]P-{NH(CH2)3NH(1-anthraquinonyl)}) = 176 to 178 °C

Query: Identify measured melting point associated with "CC(C)C[C@H](NC(=O)[C@H](C)N)C(=O)N1CCC[C@H]1C(=O)NCCCNc1cccc2c1C(=O)c1ccccc1C2=O.O=C(O)C(F)(F)F"
Reply: 170 to 174 °C

Query: Identify measured melting point associated with "NCC(=O)N1CCC[C@@H]1C(=O)NCCCNc1cccc2c1C(=O)c1ccccc1C2=O.O=C(O)C(F)(F)F"
Reply: 156 to 162 °C

====

Where a SMILES comes first, the peptide text is derived from it. The star is where a group is joined. NH(CH2)3NH(1-anthraquinonyl) = O=C1c2ccccc2C(=O)c2c(NCCCN*)cccc21
Measured melting point, listed per entry.

CSC[C@H](NC(=O)[C@H](Cc1ccc(O)cc1)NC(=O)[C@H](C)N)C(=O)NCC(=O)N[C@@H](CC(C)C)C(=O)N1CCC[C@H]1C(=O)NCCCNc1cccc2c1C(=O)c1ccccc1C2=O.O=C(O)C(F)(F)F (H-AYC(Me)GLP-{NH(CH2)3NH(1-anthraquinonyl)}) = 166 to 170 °C
N[C@@H](Cc1ccccc1)C(=O)N1CCC[C@H]1C(=O)NCCCNc1cccc2c1C(=O)c1ccccc1C2=O.O=C(O)C(F)(F)F = 118 to 120 °C

Query: Identify measured melting point associated with "CC[C@H](C)[C@H](NC(=O)[C@@H](N)Cc1ccccc1)C(=O)NCC(=O)N[C@@H](Cc1ccccc1)C(=O)N1CCC[C@H]1C(=O)NCCCNc1cccc2c1C(=O)c1ccccc1C2=O.O=C(O)C(F)(F)F"
Reply: 132 to 136 °C

Query: Identify measured melting point associated with "CC[C@H](C)[C@H](N)C(=O)NCC(=O)N[C@@H](Cc1ccccc1)C(=O)N1CCC[C@@H]1C(=O)NCCCNc1cccc2c1C(=O)c1ccccc1C2=O.O=C(O)C(F)(F)F"
Reply: 120 to 126 °C

Query: Identify measured melting point associated with "CC(C)C[C@H](NC(=O)[C@@H](N)Cc1ccccc1)C(=O)N1CCC[C@H]1C(=O)NCCCNc1cccc2c1C(=O)c1ccccc1C2=O.O=C(O)C(F)(F)F"
Reply: 184 to 188 °C

Query: Identify measured melting point associated with "CC(C)C[C@H](NC(=O)CN)C(=O)N1CCC[C@H]1C(=O)NCCCNc1cccc2c1C(=O)c1ccccc1C2=O.O=C(O)C(F)(F)F"
Reply: 144 to 148 °C

Query: Identify measured melting point associated with "CC[C@H](C)[C@H](NC(=O)[C@H](Cc1ccccc1)NC(=O)[C@H](CC(C)C)NC(=O)[C@@H](C)N)C(=O)NCC(=O)N[C@@H](Cc1ccccc1)C(=O)N1CCC[C@@H]1C(=O)NCCCNc1cccc2c1C(=O)c1ccccc1C2=O.O=C(O)C(F)(F)F"
Reply: 144 to 146 °C

Query: Identify measured melting point associated with "CC(C)C[C@H](NC(=O)[C@H](Cc1ccccc1)NC(=O)CN)C(=O)NCC(=O)N1CCC[C@@H]1C(=O)NCCCNc1cccc2c1C(=O)c1ccccc1C2=O.O=C(O)C(F)(F)F"
Reply: 154 to 156 °C

Query: Identify measured melting point associated with "CC(C)C[C@H](NC(=O)[C@@H](N)Cc1ccccc1)C(=O)NCC(=O)N1CCC[C@H]1C(=O)NCCCNc1cccc2c1C(=O)c1ccccc1C2=O.O=C(O)C(F)(F)F"
Reply: 164 to 168 °C
